Biological target: ATP-dependent translocase ABCB1 (Homo sapiens, UniProt P08183)
Sequence (P08183 whole entry): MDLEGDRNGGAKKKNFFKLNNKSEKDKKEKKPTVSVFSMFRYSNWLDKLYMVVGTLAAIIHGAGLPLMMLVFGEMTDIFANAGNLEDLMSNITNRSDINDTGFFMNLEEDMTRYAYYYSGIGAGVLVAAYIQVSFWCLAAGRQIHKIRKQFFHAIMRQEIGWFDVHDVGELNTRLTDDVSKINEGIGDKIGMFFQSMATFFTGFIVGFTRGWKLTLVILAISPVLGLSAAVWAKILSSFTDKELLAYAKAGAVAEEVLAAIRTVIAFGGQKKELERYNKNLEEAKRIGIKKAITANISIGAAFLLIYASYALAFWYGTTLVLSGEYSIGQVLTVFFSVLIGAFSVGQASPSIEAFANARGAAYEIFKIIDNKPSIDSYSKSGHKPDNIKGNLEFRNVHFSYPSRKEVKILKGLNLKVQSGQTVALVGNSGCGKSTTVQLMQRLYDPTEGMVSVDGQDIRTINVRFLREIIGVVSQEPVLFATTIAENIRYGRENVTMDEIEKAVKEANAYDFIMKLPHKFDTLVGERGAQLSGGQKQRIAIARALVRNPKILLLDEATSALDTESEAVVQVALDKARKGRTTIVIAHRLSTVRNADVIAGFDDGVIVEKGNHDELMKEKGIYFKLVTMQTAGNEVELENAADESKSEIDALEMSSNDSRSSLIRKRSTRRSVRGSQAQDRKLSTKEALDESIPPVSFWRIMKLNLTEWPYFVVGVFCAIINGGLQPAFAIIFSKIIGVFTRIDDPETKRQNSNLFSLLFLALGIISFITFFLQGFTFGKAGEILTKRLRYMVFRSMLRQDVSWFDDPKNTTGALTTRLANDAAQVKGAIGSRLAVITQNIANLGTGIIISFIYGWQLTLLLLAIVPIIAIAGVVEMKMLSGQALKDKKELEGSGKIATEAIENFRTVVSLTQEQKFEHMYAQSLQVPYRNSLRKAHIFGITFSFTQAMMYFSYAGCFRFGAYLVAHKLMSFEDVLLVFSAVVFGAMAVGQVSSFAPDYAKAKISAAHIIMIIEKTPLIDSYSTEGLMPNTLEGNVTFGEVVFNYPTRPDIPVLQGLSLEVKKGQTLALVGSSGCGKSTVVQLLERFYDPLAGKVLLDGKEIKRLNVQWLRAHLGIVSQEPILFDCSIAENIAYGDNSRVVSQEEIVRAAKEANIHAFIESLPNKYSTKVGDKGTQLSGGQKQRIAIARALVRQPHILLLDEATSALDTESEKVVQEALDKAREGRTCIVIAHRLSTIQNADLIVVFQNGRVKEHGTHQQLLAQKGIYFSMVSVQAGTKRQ
Experiment: Inhibition of P-glycoprotein expressed in MDCK-MDR1 cells by calcein AM assay
Format: cell-based
observable: Hill coefficient

Cc1ccc(NC(=O)c2ccc(CN3CCN(C)CC3)cc2)cc1Nc1nccc(-c2cccnc2)n1 = 1.18
COc1cc2c(cc1OC)CN(CCc1ccc(NC(=O)c3ccccc3NC(=O)c3ccccc3)cc1)CC2 = 2.01

A. CC[C@]1(O)C[C@@H]2CN(CCc3c([nH]c4ccccc34)[C@@](C(=O)OC)(c3cc4c(cc3OC)N(C)[C@H]3[C@@](O)(C(=O)OC)[C@H](OC(C)=O)[C@]5(CC)C=CCN6CC[C@]43[C@@H]65)C2)C1
B. COc1ccc([C@@H]2Sc3ccccc3N(CCN(C)C)C(=O)[C@@H]2OC(C)=O)cc1
IN: For the two items A and B , which reports the higher Hill coefficient value? Kindly give the label for the entry you pick.
OUT: A

----------
Test: Cytotoxicity against human A2780/ADR cells after 72 hrs by MTT assay
Type: functional, cell-based
IC50: recorded values
Express your answer in µM, writing the number without its unit.

Some solved cases for reference:
CCOc1ccc(-c2nc3cc(-c4nc5cc(N6CCN(C)CC6)ccc5[nH]4)ccc3[nH]2)cc1 = 38
CC[C@]1(O)C[C@@H]2CN(CCc3c([nH]c4ccccc34)[C@@](C(=O)OC)(c3cc4c(cc3OC)N(C)[C@H]3[C@@](O)(C(=O)OC)[C@H](OC(C)=O)[C@]5(CC)C=CCN6CC[C@]43[C@@H]65)C2)C1 = 2.82
COC(=O)c1ccccc1-c1c2ccc(=N)cc-2oc2cc(N)ccc12 = 123
CC(=O)O[C@@]12CO[C@@H]1C[C@H](O)[C@@]1(C)C(=O)[C@H](O)C3=C(C)[C@@H](OC(=O)[C@H](O)[C@@H](NC(=O)OC(C)(C)C)c4ccccc4)C[C@@](O)([C@@H](OC(=O)c4ccccc4)[C@H]21)C3(C)C = 0.0871
COc1cccc2c1C(=O)c1c(O)c3c(c(O)c1C2=O)C[C@@](O)(C(C)=O)C[C@@H]3O[C@H]1C[C@H](N)[C@H](O)[C@H](C)O1 = 18.6

IN: Bench note: what IC50 did COc1cccc2c1C(=O)c1c(O)c3c(c(O)c1C2=O)C[C@@](O)(C(=O)CO)C[C@@H]3O[C@H]1C[C@H](N)[C@H](O)[C@H](C)O1 show?
OUT: 13.5

IN: Bench note: what IC50 did COc1cc2c(c(OC)c1OC)-c1ccc(OC)c(=O)cc1[C@@H](NC(C)=O)CC2 show?
OUT: 0.372

----------
Biological target: ATP-dependent translocase ABCB1 (Homo sapiens)
Experiment: Inhibition of P-glycoprotein expressed in A2780/ADR cells by calcein AM assay
Assay type: cell-based
observable: IC50 (nM)

I. O=C(Nc1ccccc1C(=O)Nc1ccc(CCN2CCc3ccccc3C2)cc1)c1cnc2ccccc2c1
II. COc1ccc(C(=O)Nc2ccccc2C(=O)Nc2ccc(CCN3CCc4cc(OC)c(OC)cc4C3)cc2)cc1OC
III. COC(=O)[C@H]1[C@H]2C[C@@H]3c4[nH]c5cc(OC)ccc5c4CCN3C[C@H]2C[C@@H](OC(=O)c2cc(OC)c(OC)c(OC)c2)[C@@H]1OC
IV. COc1cc2c(cc1OC)CN(CCc1ccc(NC(=O)c3ccccc3NC(=O)c3ccccc3)cc1)CC2
IN: From the items above, give an ordering by IC50 that starts at the lowest reported number. Arrange the labels as the request states and list them.
OUT: II, I, IV, III
(II: 339 nM, I: 490 nM, IV: 851 nM, III: 3240 nM)
